Taken from patent US20220281997A1.

biological target: T1, AS673 VHH (camel-derived); assay: indirect ELISA, VHH coated
T1 construct: One of the 10 different camel-derived nanobodies; not shown: His tag (VHH-His)
T1 sequence (VHH, as listed by the source): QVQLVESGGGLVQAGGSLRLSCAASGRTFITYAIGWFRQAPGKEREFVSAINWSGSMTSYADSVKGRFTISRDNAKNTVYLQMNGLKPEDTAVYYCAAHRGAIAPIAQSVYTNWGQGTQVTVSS
propertyName: binding result

R166.H10 (antibody, V domains shown, Rabbit monoclonal; also called clone R166.H10) VH: QSLEESGGRLVTPGTPLTLTCTASGFSLSSYWMSWVRQAPGKGLEYIGIISGSGSTYYATWAKGRFTISKTSSTTVDLKITSPTTEDTATYFCARGNPHYSFGFNIWGPGTLVTVSL VL: DIVMTQTPASVSEPVGGTVTINCQASESIYSWLSWYQQKPGQPPKLLIYSASYLASGVPSQFRGSGSGTEYTLTISDLECADAATYYCQYNYDSGDGITNGFGGGTEVVVKG : binds
R166.A5 (antibody, V domains shown, Rabbit monoclonal; also called clone R166.A5; antibody clone R166.A5) VH: QSVEESGGRLVTPGTPLTLTCTVSGFSLNNYTVIWVRQAPGKGLEWIGIIFGSGGTYYATWAEGRFTISRTSTTVDLKMTSPTTEDTATYFCARGYFGNTFWAMDPWGPGTLVTVSS VL: NIVMTQTPASVSGAVGGTVTIKCQASQSISTYLSWYQQKPGQPPKLLIYQASELAYGVSSRFKGSGSGTEFTLTISGVECADAATYYCQQGYSDINVDNFFGGGTEVVVKG : binds
R166.E3 (antibody, V domains shown, Rabbit monoclonal; also called clone R166.E3) VH: QSLEESGGRLVTPGTPLTLTCTVSGIDLSSCVLIWVRQAPEKGLEWIGFIYGSGNAYYANWAKGRFTISKTSSTTVDLKITSPTTEDTATYFCARSQEDDSFGYGFNLWGQGTLVTVSS VL: AYDMTQTPASVEVAVGGTVTINCQASQSIGTYLSWYQQKPGQPPKLLIYRASTLTSGVSSRFKGSGSGTQFTLTISGVECADAATYYCQEGYSDINVNNIFGGGTEVVVKG : binds
